- Test system: Wolbachia pipientis
- PROTOCOL_SUMMARY: Anti-Wolbachia Cell-Based Screen
- Assay type: functional
- Design: scale not given: in the data most compounds retested in dose-response had high values
- MEASUREMENT_SETUP: 5 µM
Screen size: about 48,000 compounds; about 13,000 (27%) showed an effect of 50% or more. The list shows a part of the results.
// values below are reported Percent Effect

[
  {
    "COMPOUND": "C=Cc1cccc(CN2C[C@@H](CN(C)CC)[C@@H](CO)C2)c1",
    "QUANTITY_UNIT": "%",
    "Percent Effect": -5.546
  },
  {
    "COMPOUND": "CC(C)Cc1cc(C(=O)NCC(O)CN2CCCCCC2)on1 (stereo unspecified)",
    "QUANTITY_UNIT": "%",
    "Percent Effect": -21.74
  },
  {
    "COMPOUND": "Cc1cc(C(C)NC(=O)CCn2nnc3ccccc3c2=O)c(C)o1 (stereo unspecified)",
    "QUANTITY_UNIT": "%",
    "Percent Effect": 5.131
  },
  {
    "COMPOUND": "CN(Cc1ccccn1)c1nccc(N2CCN[C@H]3CS(=O)(=O)C[C@H]32)n1",
    "QUANTITY_UNIT": "%",
    "Percent Effect": -6.376
  },
  {
    "COMPOUND": "O=C(CCCn1cnc2ccccc2c1=O)Nc1nc[nH]n1",
    "QUANTITY_UNIT": "%",
    "Percent Effect": 118.2
  },
  {
    "COMPOUND": "O=C(CCn1ccc2ncccc2c1=O)N1CCCC1",
    "QUANTITY_UNIT": "%",
    "Percent Effect": -7.075
  }
]
